Tested on: Sclerotinia sclerotiorum
test description: plate bioassay of volatile test mixtures, growth inhibition
Assay type: cell-based
condition info: 30 hr at 22° C.; esters with 1:1 v/v propanoic acid and isobutryic acid (acids to ester 7:2 v/v), 9 ul; acids 7 ul
test readout: inhibition of Sclerotinia sclerotiorum (%)
Use % as the unit, but write only the number.

molecule	target system	inhibition of Sclerotinia sclerotiorum / %
CCCOC(=O)C(C)C [Propyl Isobutyrate]	Sclerotinia sclerotiorum	40
CC(C)C(=O)O [Isobutyric Acid, reference compound]	Sclerotinia sclerotiorum	40
CCCC(=O)OCCC(C)C [Isoamyl Butyrate]	Sclerotinia sclerotiorum	95

*Q* What value of inhibition of Sclerotinia sclerotiorum has been recorded for this entry: CCOC(=O)C(C)C [Ethyl Isobutyrate]
*A* 90

*Q* Follow-up entry: CC(C)CCOC(=O)C(C)C [Isoamyl Isobutyrate]
*A* 80

*Q* Follow-up entry: CCCCOC(=O)C(C)C [Butyl Isobutyrate]
*A* 0

*Q* Follow-up entry: CCCC(=O)OCC(C)C [Isobutyl Butyrate]
*A* 70

*Q* Follow-up entry: CCC(=O)O [Propanoic Acid, reference compound]
*A* 60

*Q* Follow-up entry: CC(=O)OCC(C)C [Isobutyl Acetate]
*A* 20

*Q* Follow-up entry: CCC(=O)OCC(C)C [Isobutyl Propionate]
*A* 80

*Q* Follow-up entry: CC(C)OC(=O)C(C)C [Isopropyl Isobutyrate]
*A* 30

*Q* Follow-up entry: CC(C)COC(=O)C(C)C [Isobutyl Isobutyrate]
*A* 75

*Q* Follow-up entry: CC(C)COC(=O)CC(C)C [Isobutyl Isovalerate]
*A* 0

---

Tested on: Trichoderma viridae
test description: plate bioassay of volatile test mixtures, growth inhibition
Format: cell-based
condition info: 30 hr at 22° C.; esters with 1:1 v/v propanoic acid and isobutryic acid (acids to ester 7:2 v/v), 9 ul; acids 7 ul
test readout: inhibition of Trichoderma viridae

Here are 8 compounds together with their reported answers.
compound	target system	inhibition of Trichoderma viridae
CC(C)CCOC(=O)C(C)C [Isoamyl Isobutyrate]	Trichoderma viridae	67%
CC(C)C(=O)O [Isobutyric Acid, reference compound]	Trichoderma viridae	27%
CC(=O)OCC(C)C [Isobutyl Acetate]	Trichoderma viridae	20%
CCOC(=O)C(C)C [Ethyl Isobutyrate]	Trichoderma viridae	67%
CCC(=O)O [Propanoic Acid, reference compound]	Trichoderma viridae	53%
CCC(=O)OCC(C)C [Isobutyl Propionate]	Trichoderma viridae	40%
CCCCOC(=O)C(C)C [Butyl Isobutyrate]	Trichoderma viridae	40%
CC(C)OC(=O)C(C)C [Isopropyl Isobutyrate]	Trichoderma viridae	20%

*Q* What value of inhibition of Trichoderma viridae has been recorded for this entry: CCCC(=O)OCCC(C)C [Isoamyl Butyrate]
*A* 90%

*Q* Follow-up entry: CCCOC(=O)C(C)C [Propyl Isobutyrate]
*A* 33%

*Q* Follow-up entry: CC(C)COC(=O)C(C)C [Isobutyl Isobutyrate]
*A* 47%

*Q* Follow-up entry: CCCC(=O)OCC(C)C [Isobutyl Butyrate]
*A* 47%

*Q* Follow-up entry: CC(C)COC(=O)CC(C)C [Isobutyl Isovalerate]
*A* 20%

---

Tested on: Bacillus subtilus
test description: plate bioassay of volatile test mixtures, relative growth of streak
Format: cell-based
condition info: relative growth after 30 hr at 22° C.; esters with 1:1 v/v propanoic acid and isobutryic acid (7:2 v/v), 9 ul; acids 7 ul
test readout: growth of Bacillus subtilus

Here are 4 compounds together with their reported answers.
compound	target system	growth of Bacillus subtilus
CC(C)CCOC(=O)C(C)C [Isoamyl Isobutyrate]	Bacillus subtilus	No Growth
CC(C)C(=O)O [Isobutyric Acid, reference compound]	Bacillus subtilus	No Growth
CC(C)COC(=O)C(C)C [Isobutyl Isobutyrate]	Bacillus subtilus	Inhibited
CCCOC(=O)C(C)C [Propyl Isobutyrate]	Bacillus subtilus	Inhibited

*Q* What value of growth of Bacillus subtilus has been recorded for this entry: CC(C)OC(=O)C(C)C [Isopropyl Isobutyrate]
*A* No Growth

*Q* Follow-up entry: CCCC(=O)OCC(C)C [Isobutyl Butyrate]
*A* No Growth

*Q* Follow-up entry: CCC(=O)O [Propanoic Acid, reference compound]
*A* No Growth

*Q* Follow-up entry: CC(C)COC(=O)CC(C)C [Isobutyl Isovalerate]
*A* Inhibited

*Q* Follow-up entry: CCOC(=O)C(C)C [Ethyl Isobutyrate]
*A* No Growth

*Q* Follow-up entry: CCCCOC(=O)C(C)C [Butyl Isobutyrate]
*A* No Growth

*Q* Follow-up entry: CCC(=O)OCC(C)C [Isobutyl Propionate]
*A* No Growth

*Q* Follow-up entry: CCCC(=O)OCCC(C)C [Isoamyl Butyrate]
*A* No Growth

*Q* Follow-up entry: CC(=O)OCC(C)C [Isobutyl Acetate]
*A* Inhibited

---

Tested on: Escherichia coli
test description: plate bioassay of volatile test mixtures, relative growth of streak
Type: cell-based
condition info: relative growth after 30 hr at 22° C.; esters with 1:1 v/v propanoic acid and isobutryic acid (7:2 v/v), 9 ul; acids 7 ul
test readout: growth of Escherichia coli

Here are 5 compounds together with their reported answers.
compound	growth of Escherichia coli
CC(C)COC(=O)C(C)C [Isobutyl Isobutyrate]	Inhibited
CCCC(=O)OCCC(C)C [Isoamyl Butyrate]	No Growth
CC(C)C(=O)O [Isobutyric Acid, reference compound]	No Growth
CC(=O)OCC(C)C [Isobutyl Acetate]	Inhibited
CC(C)COC(=O)CC(C)C [Isobutyl Isovalerate]	Inhibited

*Q* Given the entry CC(C)CCOC(=O)C(C)C [Isoamyl Isobutyrate] , what growth of Escherichia coli was observed with Escherichia coli?
*A* No Growth

*Q* Follow-up entry: CCC(=O)O [Propanoic Acid, reference compound]
*A* No Growth

*Q* Follow-up entry: CCCC(=O)OCC(C)C [Isobutyl Butyrate]
*A* No Growth

*Q* Follow-up entry: CC(C)OC(=O)C(C)C [Isopropyl Isobutyrate]
*A* No Growth

*Q* Follow-up entry: CCOC(=O)C(C)C [Ethyl Isobutyrate]
*A* No Growth

*Q* Follow-up entry: CCCCOC(=O)C(C)C [Butyl Isobutyrate]
*A* No Growth

*Q* Follow-up entry: CCCOC(=O)C(C)C [Propyl Isobutyrate]
*A* Inhibited

*Q* Follow-up entry: CCC(=O)OCC(C)C [Isobutyl Propionate]
*A* No Growth
